test system: c-Abl (mouse); assay: phosphorylation enrichment, bacterial display (enrichment ratio); higher = better substrate or ligand; peptides without Tyr show the background;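 note: 11-residue human phosphosite peptides and single-mutation variants displayed on the E. coli surface, counted by deep sequencing, each peptide's frequency after selection divided by its frequency in the unselected input library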;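 note: frequency after pTyr selection over input frequency; kinase dosed for 20-30% of maximal phosphorylation in three min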
Catalogue of phosphorylation enrichment readings, one per entry.
reported_endpoint: phosphorylation enrichment

INSERT INTO results (biopolymer_sequence, reported_endpoint, value_reported) VALUES
  ('VLNKGYRMVVN [HINT1_Y94_G89V]', 'phosphorylation enrichment', 0.361),
  ('RASQEYHIVKK [PDZD2_Y557_S552R]', 'phosphorylation enrichment', 0.841),
  ('ERPIRYLNHQL [CEP152_Y268_Q265P]', 'phosphorylation enrichment', 0.552),
  ('SMAKFYASGIA [ACADSB_Y373_E376G_YF]', 'phosphorylation enrichment', 0.51),
  ('SHSMRYFDTSV [HLA-C_Y31_A35S]', 'phosphorylation enrichment', 0.455),
  ('LQLLGDRPVFS [CHST6_Y358_Y358D_YF]', 'phosphorylation enrichment', 0.673),
  ('VECRVYAEDPF [PCCA_Y401_YF]', 'phosphorylation enrichment', 1.11),
  ('MSRDIYSTDYY [NTRK1_Y676]', 'phosphorylation enrichment', 0.733),
  ('LMQAEYWHDPI [PPT1_Y185_V181M]', 'phosphorylation enrichment', 0.724),
  ('EPDSLYGCGRG [ATM_Y2019_G2023R]', 'phosphorylation enrichment', 0.885),
  ('DKATEYIQFVR [MAX_Y70_M74V_YF]', 'phosphorylation enrichment', 0.574),
  ('LLRLAYLADIF [ZBED5_Y476]', 'phosphorylation enrichment', 0.765),
  ('FASTGYVIAIQ [GRIN2B_Y762_G763V]', 'phosphorylation enrichment', 0.784);

* * *

biological target: SHP2-C SH2; test: SH2 binding enrichment of the phosphorylated peptide, bacterial display (enrichment ratio); higher = better substrate or ligand; peptides without Tyr show the background;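 note: peptide library displayed on the E. coli surface as eCPX fusions, selected cells deep-sequenced, score is each peptide's frequency after selection divided by its frequency in the input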
reported_endpoint: SH2 binding enrichment

INSERT INTO results (biopolymer_sequence, reported_endpoint, value_reported) VALUES
  ('ASYGPYTRVQS [FOXL2_Y258]', 'SH2 binding enrichment', 6.64),
  ('RARIRYAQEHD [NSD1_Y1987]', 'SH2 binding enrichment', 0.536),
  ('DAGTDYVGISC [FREM2_Y2061_R2066C]', 'SH2 binding enrichment', 0.898),
  ('GGMTEYELVVV [KRAS_Y4_K5E]', 'SH2 binding enrichment', 0.528),
  ('TEAEPYFCSLR [NPHS1_Y1138_R1140C_YF]', 'SH2 binding enrichment', 0.647),
  ('YSDPSYVKQME [CDC5L_Y464]', 'SH2 binding enrichment', 0.608),
  ('MGGSVYFSYPD [HIKESHI_Y55]', 'SH2 binding enrichment', 1.94),
  ('FQKNSYSEELR [LMNA_Y211_I210S]', 'SH2 binding enrichment', 0.643),
  ('KNKNRCKNILP [PTPN11_Y279_Y279C]', 'SH2 binding enrichment', 0.598),
  ('ASPKSYPSQKH [CAP2_Y316_T311A]', 'SH2 binding enrichment', 0.638),
  ('EIRTQDEAMAS [GFAP_Y242_Y242D]', 'SH2 binding enrichment', 0.772),
  ('KAIMTYVPSFF [ACTN4_Y260_S262P_YF]', 'SH2 binding enrichment', 0.836),
  ('AGVDRYSLGTS [C5orf42_Y1451_P1446A]', 'SH2 binding enrichment', 0.615),
  ('PDNEPYIFKVF [PIK3AP1_Y553]', 'SH2 binding enrichment', 1),
  ('CSHMFYGKQCC [ADAMTS16_Y1211_K1209M]', 'SH2 binding enrichment', 0.827),
  ('SNNYIYKTLGV [FAM83B_Y639]', 'SH2 binding enrichment', 0.968),
  ('FESPRYLQVHI [FANCA_Y488]', 'SH2 binding enrichment', 0.781),
  ('SSFPDYLAAVD [GLB1_Y154_D151Y_YF]', 'SH2 binding enrichment', 2.81),
  ('KANEYYPVVII [ADAMTS18_Y765_L769I]', 'SH2 binding enrichment', 0.458),
  ('ATDLAYYLVRE [ASL_Y375_K380E]', 'SH2 binding enrichment', 3.3),
  ('PFRSIYFSSPK [MPG_Y75_YF]', 'SH2 binding enrichment', 0.565),
  ('KNDSNYVVKGN [KIT_Y823]', 'SH2 binding enrichment', 0.659),
  ('DEEPPYRGPFC [SASH1_Y551]', 'SH2 binding enrichment', 1.21),
  ('GGPTFYIDTNA [ACTL6A_Y69_YF]', 'SH2 binding enrichment', 0.608),
  ('LHSDHYSPSGR [TMPRSS12_Y23_Y19H]', 'SH2 binding enrichment', 0.557),
  ('EKKQTYGSCRK [LACTB_Y473_R469K]', 'SH2 binding enrichment', 0.838),
  ('RLDRSYSYSYS [PEAR1_Y890]', 'SH2 binding enrichment', 1.12),
  ('EVKAQYEDIAQ [KRT1_Y358]', 'SH2 binding enrichment', 0.64),
  ('HKGASYVFRLS [PTPRD_Y891]', 'SH2 binding enrichment', 2.11),
  ('FPSLPYSPVSS [CAMKK2_Y128_C123Y_YF]', 'SH2 binding enrichment', 0.863),
  ('YDEYRYRSVIK [CFTR_Y517]', 'SH2 binding enrichment', 0.606),
  ('GRVLGYGTFGK [FLT4_Y853_A855T]', 'SH2 binding enrichment', 0.7),
  ('RRAKGYPIDLF [ITGB2_Y125_YF]', 'SH2 binding enrichment', 0.687),
  ('ELAKFYKLHHI [AK7_Y391_N389K_YF]', 'SH2 binding enrichment', 0.747),
  ('PEVRRYVLPLN [RPE65_Y368]', 'SH2 binding enrichment', 0.64),
  ('GISDEYHVIRH [GCDH_Y398]', 'SH2 binding enrichment', 0.606),
  ('MSNFACVKREV [SCN1A_Y1694_Y1694C]', 'SH2 binding enrichment', 0.612),
  ('HFPFQCHRQLF [F12_Y53_Y53C_YF]', 'SH2 binding enrichment', 1.01),
  ('GSPAPYRRRKR [MBD1_Y403_P401A]', 'SH2 binding enrichment', 0.413),
  ('LSVEIHDRREY [ITGB7_Y753_Y753H]', 'SH2 binding enrichment', 0.473),
  ('AFLGEYIPTVF [RAC2_Y32_P29L]', 'SH2 binding enrichment', 1.01),
  ('VKYGAYINDFK [GLB1_Y488_N484K]', 'SH2 binding enrichment', 1.06),
  ('SAVVPYEPPEV [TP53_Y220_V216A]', 'SH2 binding enrichment', 0.502),
  ('RRNEIYEIKVD [LGR5_Y387_H383R]', 'SH2 binding enrichment', 0.692),
  ('CTTIHYTYMCN [TP53_Y234_N235T]', 'SH2 binding enrichment', 6.45),
  ('IFRAAYFGVFD [SLC25A4_Y191_YF]', 'SH2 binding enrichment', 0.588),
  ('SSEFHYVGGFF [CTSC_Y347_YF]', 'SH2 binding enrichment', 0.607),
  ('GEETDYTPVWC [UROD_Y30]', 'SH2 binding enrichment', 0.748),
  ('ILGTYYETGSI [PAX2_Y73_R71T]', 'SH2 binding enrichment', 0.559),
  ('VRSVDYVLFRS [FAM189B_Y361]', 'SH2 binding enrichment', 1.12),
  ('PESTLYRKFTT [NTRK1_Y701_I699T]', 'SH2 binding enrichment', 0.538),
  ('ISSLRYKLLEE [TRPC6_Y896_E897K]', 'SH2 binding enrichment', 0.65),
  ('ANVIRYFPTQA [SLC25A4_Y81]', 'SH2 binding enrichment', 0.673),
  ('NLDRFYQQVTK [SEC16A_Y1041]', 'SH2 binding enrichment', 0.628),
  ('LLRLAYLADIF [ZBED5_Y476]', 'SH2 binding enrichment', 1.61),
  ('VTPVMYTFDEF [COL10A1_Y623_G618V_YF]', 'SH2 binding enrichment', 0.698),
  ('FSAPNYCYRCG [PPP2CA_Y265]', 'SH2 binding enrichment', 0.933);
